Species: Rattus norvegicus
Assay: DrugMatrix - Regimen: Daily Repeat
Assay type: toxicity, organism-based, Sprague-Dawley
Parameters: regimen Daily Repeat, gender Male, age 6-8 weeks
Conditions: in vivo, po, 0 mg/kg, 120 h, tissue Plasma, route oral GAVAGE, dose level Control, time 5 day, vehicle .5 % CMC
So basically, if CARBON DIOXIDE comes in under 30 mmol/L it's TRUE, and if it's 30 mmol/L or more it's FALSE.

COMPOUND: C[C@]12CC[C@@H]3c4ccc(O)cc4CC[C@H]3[C@@H]1C[C@@H](O)[C@@H]2O
CAT: TRUE
--
COMPOUND: CCC1=C(C)CN(C(=O)NCCc2ccc(S(=O)(=O)NC(=O)N[C@H]3CC[C@H](C)CC3)cc2)C1=O [GLIMEPIRIDE]
CAT: TRUE
--
COMPOUND: CN(C)C(=O)C(CCN1CCC(O)(c2ccc(Cl)cc2)CC1)(c1ccccc1)c1ccccc1 [LOPERAMIDE]
CAT: TRUE
--
COMPOUND: C[C@@](Cc1ccc(O)c(O)c1)(NN)C(=O)O.O
CAT: TRUE
--
COMPOUND: CN(C)CCN(Cc1cccs1)c1ccccn1
CAT: FALSE
--
COMPOUND: C[C@H]1[C@H](NC(=O)/C(=N\OC(C)(C)C(=O)O)c2csc(N)n2)C(=O)N1S(=O)(=O)O
CAT: TRUE
--
COMPOUND: COc1ccccc1[N+](=O)[O-]
CAT: FALSE

---

Species on record: Rattus norvegicus
Experiment: DrugMatrix - Regimen: Daily Repeat
Type: toxicity, organism-based, Sprague-Dawley
Design: regimen Daily Repeat, gender Male, age 6-8 weeks
Conditions: in vivo, ip, 0 mg/kg, […], tissue Blood, route intraperitoneal, dose level Control, time 14 day, vehicle 100 % SALINE
ABSOLUTE BASOPHIL listing for selected sequences.

SEQUENCE_ENTRY: TRANSPLATIN
ABSOLUTE BASOPHIL (cells/µL): 130

SEQUENCE_ENTRY: COBALTOUS CHLORIDE
ABSOLUTE BASOPHIL (cells/µL): 130

---

Species: Rattus norvegicus
Assay: DrugMatrix - Regimen: Daily Repeat
Assay type: toxicity, organism-based, Sprague-Dawley
Design: regimen Daily Repeat, gender Male, age 6-8 weeks
Settings: in vivo, po, 0 mg/kg, 120 h, tissue Plasma, route oral GAVAGE, dose level Control, time 5 day, vehicle 100 % WATER

COMPOUND: NC12CC3CC(CC(C3)C1)C2 [AMANTADINE]
ASPARTATE AMINOTRANSFERASE [u/L]: 87.67

COMPOUND: CN(C)CCC=C1c2ccccc2CCc2ccccc21 [AMITRIPTYLINE]
ASPARTATE AMINOTRANSFERASE [u/L]: 87.67

COMPOUND: C#Cc1cccc(Nc2ncnc3cc(OCCOC)c(OCCOC)cc23)c1 [ERLOTINIB]
ASPARTATE AMINOTRANSFERASE [u/L]: 83

COMPOUND: CCN(CC)CCOC(=O)C1(C2CCCCC2)CCCCC1 [DICYCLOMINE]
ASPARTATE AMINOTRANSFERASE [u/L]: 62.33

COMPOUND: CCN(C(C)=O)c1cccc(-c2ccnc3c(C#N)cnn23)c1 [ZALEPLON]
ASPARTATE AMINOTRANSFERASE [u/L]: 87.67

COMPOUND: CCN(CC)CCNC(=O)c1ccc(N)cc1 [PROCAINAMIDE]
ASPARTATE AMINOTRANSFERASE [u/L]: 61

COMPOUND: O=c1[nH]c(=O)n(C2CCCO2)cc1F (stereo unspecified) [TEGAFUR]
ASPARTATE AMINOTRANSFERASE [u/L]: 92.5

COMPOUND: NC(=O)c1cccnc1 [NIACINAMIDE]
ASPARTATE AMINOTRANSFERASE [u/L]: 88

COMPOUND: CNC1=Nc2ccc(Cl)cc2C(c2ccccc2)=[N+]([O-])C1 [CHLORDIAZEPOXIDE]
ASPARTATE AMINOTRANSFERASE [u/L]: 82.67

COMPOUND: CN(C)C(=O)Oc1cccc([N+](C)(C)C)c1.[Br-] [NEOSTIGMINE BROMIDE]
ASPARTATE AMINOTRANSFERASE [u/L]: 80.83

COMPOUND: CCCC(C)C1(CC)C(=O)NC(=O)NC1=O (stereo unspecified) [PENTOBARBITAL]
ASPARTATE AMINOTRANSFERASE [u/L]: 80.83

---

Species: Rattus norvegicus
Test: DrugMatrix - Regimen: Daily Repeat
Assay type: toxicity, organism-based, Sprague-Dawley
Parameters: regimen Daily Repeat, gender Male, age 6-8 weeks
Details: in vivo, po, 0 mg/kg, 120 h, tissue Plasma, route oral GAVAGE, dose level Control, time 5 day, vehicle .5 % CMC
Decide by ALBUMIN: equal to or exceeding 4 G/DL means label 1, less means label 0.

MOLECULE: C[C@]12CC[C@@H]3c4ccc(O)cc4CC[C@H]3[C@@H]1C[C@@H](O)[C@@H]2O
CAT: label 1
//
MOLECULE: CCOc1nc2cccc(C(=O)O)c2n1Cc1ccc(-c2ccccc2-c2nnn[nH]2)cc1
CAT: label 1
//
MOLECULE: COc1ccccc1[N+](=O)[O-]
CAT: label 1
//
MOLECULE: CN1C(=O)CN=C(c2ccccc2)c2cc([N+](=O)[O-])ccc21
CAT: label 0
//
MOLECULE: NC(=O)N1c2ccccc2CC(=O)c2ccccc21 [OXCARBAZEPINE]
CAT: label 1
//
MOLECULE: CN(C)CCN(Cc1cccs1)c1ccccn1
CAT: label 0
//
MOLECULE: C[C@@](Cc1ccc(O)c(O)c1)(NN)C(=O)O.O
CAT: label 1
//
MOLECULE: C#C[C@]1(O)CC[C@H]2[C@@H]3CCC4=CC(=O)CC[C@]4(C)[C@H]3CC[C@@]21C
CAT: label 0
//
MOLECULE: CCCCC1=NC2(CCCC2)C(=O)N1Cc1ccc(-c2ccccc2-c2nnn[nH]2)cc1
CAT: label 1
//
MOLECULE: CCC1=C(C)CN(C(=O)NCCc2ccc(S(=O)(=O)NC(=O)N[C@H]3CC[C@H](C)CC3)cc2)C1=O [GLIMEPIRIDE]
CAT: label 1
//
MOLECULE: C[C@@H]1O[C@@H](O[C@H]2C[C@@H](O)[C@]3(CO)[C@H]4[C@H](O)C[C@]5(C)[C@@H](C6=CC(=O)OC6)CC[C@]5(O)[C@@H]4CC[C@]3(O)C2)[C@H](O)[C@H](O)[C@H]1O
CAT: label 1
//
MOLECULE: CCn1cc(C(=O)O)c(=O)c2cc(F)c(N3CCNC(C)C3)c(F)c21 (configuration not stated)
CAT: label 0
//
MOLECULE: C[C@H]1[C@H](NC(=O)/C(=N\OC(C)(C)C(=O)O)c2csc(N)n2)C(=O)N1S(=O)(=O)O
CAT: label 1
//
MOLECULE: CCCNC(=O)NS(=O)(=O)c1ccc(Cl)cc1 [CHLORPROPAMIDE]
CAT: label 0
//
MOLECULE: COc1ccc2c(c1OC)C(=O)O[C@@H]2[C@H]1c2c(cc3c(c2OC)OCO3)CCN1C
CAT: label 0
//
MOLECULE: CN(C)C(=O)C(CCN1CCC(O)(c2ccc(Cl)cc2)CC1)(c1ccccc1)c1ccccc1 [LOPERAMIDE]
CAT: label 1
//
MOLECULE: COc1cc(OC)c(C(=O)CCCN2CCCC2)c(OC)c1
CAT: label 1

---

Species: Rattus norvegicus
Experiment: DrugMatrix - Regimen: Daily Repeat
Assay type: toxicity, organism-based, Sprague-Dawley
Design: regimen Daily Repeat, gender Male, age 6-8 weeks
Settings: in vivo, ip, 10 mg/kg, […], tissue Blood, route intraperitoneal, dose level High, time 28 day, vehicle 100 % SALINE
VALUE_TYPE: ABSOLUTE BASOPHIL (cells/µL)

SEQUENCE_ENTRY: COBALTOUS CHLORIDE
VALUE_TYPE: ABSOLUTE BASOPHIL
MEAS_VALUE: 170

---

Species on record: Rattus norvegicus
Type: toxicity, organism-based, Sprague-Dawley
Settings: in vivo, po, 0 mg/kg, 24 h, vehicle control, tissue Blood, route oral GAVAGE, dose level Control, time 1 day, vehicle 100 % SALINE
Description: DrugMatrix - Regimen: Single

COMPOUND: COc1cccc2c1C(=O)c1c(O)c3c(c(O)c1C2=O)C[C@@](O)(C(C)=O)C[C@@H]3O[C@H]1C[C@H](N)[C@H](O)[C@H](C)O1 [DAUNORUBICIN]
ABSOLUTE BASOPHIL [cells/µL]: 73.3

---

Species on record: Rattus norvegicus
Experiment: DrugMatrix - Regimen: Daily Repeat
Assay type: toxicity, organism-based, Sprague-Dawley
Set-up: regimen Daily Repeat, gender Male, age 6-8 weeks
Conditions: in vivo, po, 0 mg/kg, 120 h, tissue Plasma, route oral GAVAGE, dose level Control, time 5 day, vehicle 100 % WATER
ALKALINE PHOSPHATASE listing for selected compounds.
VALUE_TYPE: ALKALINE PHOSPHATASE (u/L)

COMPOUND: CCN(CC)CCNC(=O)c1ccc(N)cc1 [PROCAINAMIDE]
MEAS_VALUE: 303.5
--
COMPOUND: CN(C)CCC=C1c2ccccc2CCc2ccccc21
MEAS_VALUE: 355.5
--
COMPOUND: NC12CC3CC(CC(C3)C1)C2
MEAS_VALUE: 355.5
--
COMPOUND: CN(C)C(=O)Oc1cccc([N+](C)(C)C)c1.[Br-] [NEOSTIGMINE BROMIDE]
MEAS_VALUE: 343.17
--
COMPOUND: CCCC(C)C1(CC)C(=O)NC(=O)NC1=O (stereo unspecified)
MEAS_VALUE: 343.17
--
COMPOUND: O=c1[nH]c(=O)n(C2CCCO2)cc1F (stereo unspecified)
MEAS_VALUE: 345
